- ASSAY_TARGET: T1, EsCas13d, nuclease-dead (Eubacterium siraeum, UniProt B0MS50, R295A;H300A;R849A;H854A)
- T1 sequence: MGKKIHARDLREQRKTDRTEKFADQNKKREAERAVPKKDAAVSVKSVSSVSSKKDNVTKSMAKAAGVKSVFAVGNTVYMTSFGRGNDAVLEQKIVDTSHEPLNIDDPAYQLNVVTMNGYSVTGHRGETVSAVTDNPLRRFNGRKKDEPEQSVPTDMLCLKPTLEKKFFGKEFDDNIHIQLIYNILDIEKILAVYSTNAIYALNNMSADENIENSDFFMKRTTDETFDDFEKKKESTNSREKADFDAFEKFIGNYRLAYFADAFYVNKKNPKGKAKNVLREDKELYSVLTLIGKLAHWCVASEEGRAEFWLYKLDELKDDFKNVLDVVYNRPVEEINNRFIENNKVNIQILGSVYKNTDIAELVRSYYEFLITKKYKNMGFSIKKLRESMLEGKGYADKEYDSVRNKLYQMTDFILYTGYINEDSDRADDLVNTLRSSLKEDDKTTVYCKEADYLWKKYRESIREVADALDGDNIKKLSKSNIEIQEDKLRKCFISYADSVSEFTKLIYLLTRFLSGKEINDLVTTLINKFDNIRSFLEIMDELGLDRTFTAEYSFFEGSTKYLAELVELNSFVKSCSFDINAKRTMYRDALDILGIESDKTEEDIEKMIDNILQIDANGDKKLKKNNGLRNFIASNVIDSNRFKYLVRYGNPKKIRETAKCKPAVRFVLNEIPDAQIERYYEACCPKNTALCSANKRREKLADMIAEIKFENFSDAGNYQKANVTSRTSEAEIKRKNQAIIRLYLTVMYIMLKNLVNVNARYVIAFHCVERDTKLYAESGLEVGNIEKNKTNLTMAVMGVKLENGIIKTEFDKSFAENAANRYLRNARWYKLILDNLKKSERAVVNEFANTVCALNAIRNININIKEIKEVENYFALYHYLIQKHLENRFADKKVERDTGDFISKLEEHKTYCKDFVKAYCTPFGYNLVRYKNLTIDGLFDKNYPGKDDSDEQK
- PROCEDURE_DETAILS: crRNA (strand 1, pre-loaded); Mg2+; 40 mM Tris-HCl pH 7.5, 150 mM NaCl, 6 mM MgCl2, 1 mM DTT, 0.1% Tween-20, 0.2 mg/ml BSA; 25 C; 10 min per concentration, then washed
- PROTOCOL_CONDITIONS: tags: His6-TwinStrep-SUMO cleaved; N-terminal SNAP kept (SNAP-Surface 488); label: 3' end held by stalled T7 RNA polymerase
pKd: −log10 of the molar value.
MEASUREMENT_NAME: pKd

BINDER	VAL
target 2 MT 5'PFS GCU 3'PFS AAA (mixed) RNA 1: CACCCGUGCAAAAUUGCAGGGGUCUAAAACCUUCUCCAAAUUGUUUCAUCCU RNA 2: GGGAAUGGAUCCACAUCUACGAAUUCGCUAGGAUGAAACAAUUUGGAGAAGAAAAGAUCGGAAGAGCACACGU	8.23
target 2 MT 5'PFS CGG 3'PFS ACU (mixed) RNA 1: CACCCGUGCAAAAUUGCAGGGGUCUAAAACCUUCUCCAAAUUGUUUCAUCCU RNA 2: GGGAAUGGAUCCACAUCUACGAAUUCCGGAGGAUGAAACAAUUUGGAGAAGACUAGAUCGGAAGAGCACACGU	8.17
target 3 insA 3' of 19 (mixed) RNA 1: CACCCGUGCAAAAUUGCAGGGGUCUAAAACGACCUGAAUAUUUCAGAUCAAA RNA 2: GGGAAUGGAUCCACAUCUACGAAUUCGUUUUUGAAUCUGAAAUAUUCAGGUCUGCAGAUCGGAAGAGCACACGU	7.08
target 1 complement block 18-20 (mixed) RNA 1: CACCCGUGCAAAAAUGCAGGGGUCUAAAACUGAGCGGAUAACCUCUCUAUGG RNA 2: GGGAAUGGAUCCACAUCUACGAAUUCGUACCUAUGAGAGGUUAUCCGCUCACCGAGAUCGGAAGAGCACACGU	7.24
target 3 insU 3' of 22,insG 3' of 8 (mixed) RNA 1: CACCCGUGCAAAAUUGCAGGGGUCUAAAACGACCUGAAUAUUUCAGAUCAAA RNA 2: GGGAAUGGAUCCACAUCUACGAAUUCGUUUUUUGAUCUGAAAUAUGUCAGGUCUGCAGAUCGGAAGAGCACACGU	7.30
target 3 insC 3' of 8,insU 3' of 4 (mixed) RNA 1: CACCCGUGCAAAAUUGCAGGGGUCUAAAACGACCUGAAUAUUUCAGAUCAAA RNA 2: GGGAAUGGAUCCACAUCUACGAAUUCGUUUUUGAUCUGAAAUAUCUCAGUGUCUGCAGAUCGGAAGAGCACACGU	6.98
target 1 insG 3' of 9,insA 3' of 7 (mixed) RNA 1: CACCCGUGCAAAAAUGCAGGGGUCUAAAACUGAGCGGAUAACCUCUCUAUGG RNA 2: GGGAAUGGAUCCACAUCUACGAAUUCGUACCAUAGAGAGGUUAGUCACGCUCACCGAGAUCGGAAGAGCACACGU	7.91
target 1 MT 5'PFS GCG 3'PFS AUG (mixed) RNA 1: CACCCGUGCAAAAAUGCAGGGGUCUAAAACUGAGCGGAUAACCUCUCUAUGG RNA 2: GGGAAUGGAUCCACAUCUACGAAUUCGCGCCAUAGAGAGGUUAUCCGCUCAAUGAGAUCGGAAGAGCACACGU	7.52
target 1 C2A,U3A (mixed) RNA 1: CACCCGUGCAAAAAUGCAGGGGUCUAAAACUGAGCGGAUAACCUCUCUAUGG RNA 2: GGGAAUGGAUCCACAUCUACGAAUUCGUACCAUAGAGAGGUUAUCCGCAAACCGAGAUCGGAAGAGCACACGU	8.00
target 3 insC 3' of 5,insA 3' of 3 (mixed) RNA 1: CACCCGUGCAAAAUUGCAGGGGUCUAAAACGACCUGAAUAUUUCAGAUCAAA RNA 2: GGGAAUGGAUCCACAUCUACGAAUUCGUUUUUGAUCUGAAAUAUUCACGGAUCUGCAGAUCGGAAGAGCACACGU	8.13
target 3 insC 3' of 13,insU 3' of 4 (mixed) RNA 1: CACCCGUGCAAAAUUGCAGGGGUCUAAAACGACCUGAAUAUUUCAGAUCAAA RNA 2: GGGAAUGGAUCCACAUCUACGAAUUCGUUUUUGAUCUGACAAUAUUCAGUGUCUGCAGAUCGGAAGAGCACACGU	7.23
target 3 U8G,A18G (mixed) RNA 1: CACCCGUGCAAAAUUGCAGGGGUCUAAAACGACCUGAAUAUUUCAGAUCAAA RNA 2: GGGAAUGGAUCCACAUCUACGAAUUCGUUUUUGGUCUGAAAUAGUCAGGUCUGCAGAUCGGAAGAGCACACGU	7.14
target 2 MT 5'PFS GAC 3'PFS AAG (mixed) RNA 1: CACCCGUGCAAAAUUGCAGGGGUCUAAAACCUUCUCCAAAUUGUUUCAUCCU RNA 2: GGGAAUGGAUCCACAUCUACGAAUUCGACAGGAUGAAACAAUUUGGAGAAGAAGAGAUCGGAAGAGCACACGU	8.10
target 1 A1U,U3C (mixed) RNA 1: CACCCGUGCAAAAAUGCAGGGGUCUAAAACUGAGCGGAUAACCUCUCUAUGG RNA 2: GGGAAUGGAUCCACAUCUACGAAUUCGUACCAUAGAGAGGUUAUCCGCCCUCCGAGAUCGGAAGAGCACACGU	7.68
target 1 U8C,G15C (mixed) RNA 1: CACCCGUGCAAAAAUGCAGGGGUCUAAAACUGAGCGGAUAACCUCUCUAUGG RNA 2: GGGAAUGGAUCCACAUCUACGAAUUCGUACCAUAGACAGGUUACCCGCUCACCGAGAUCGGAAGAGCACACGU	7.17
